FYI, the data here is from patent US12391697B2.

Each item that follows carries a reported IC50.
target: BTK (Homo sapiens (Human), UniProt Q06187)
Sequence (Q06187 whole entry): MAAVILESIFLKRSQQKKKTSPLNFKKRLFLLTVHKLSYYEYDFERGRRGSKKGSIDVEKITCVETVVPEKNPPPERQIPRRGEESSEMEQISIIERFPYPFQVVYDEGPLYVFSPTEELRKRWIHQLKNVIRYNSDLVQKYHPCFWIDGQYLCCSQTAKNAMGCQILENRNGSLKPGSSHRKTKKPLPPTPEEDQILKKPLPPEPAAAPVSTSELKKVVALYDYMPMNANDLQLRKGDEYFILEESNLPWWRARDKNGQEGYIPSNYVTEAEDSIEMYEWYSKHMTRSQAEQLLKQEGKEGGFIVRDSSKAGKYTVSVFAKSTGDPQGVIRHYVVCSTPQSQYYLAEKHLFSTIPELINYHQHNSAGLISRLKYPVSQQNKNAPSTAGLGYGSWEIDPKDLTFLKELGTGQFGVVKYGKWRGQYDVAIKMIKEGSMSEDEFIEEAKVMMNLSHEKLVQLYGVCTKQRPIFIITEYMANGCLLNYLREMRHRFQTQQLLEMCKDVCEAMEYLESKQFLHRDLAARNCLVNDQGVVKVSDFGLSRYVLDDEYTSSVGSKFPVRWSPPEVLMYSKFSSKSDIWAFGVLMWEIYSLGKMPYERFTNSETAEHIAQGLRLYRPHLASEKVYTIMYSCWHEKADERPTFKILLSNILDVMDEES

Some compounds with known IC50 results, for comparison:
INSERT INTO results (compound, target_under_test, observed_value) VALUES
  ('Cc1cc(-c2ncnn3cc(N4CC[C@H](F)C4)cc23)ccc1CNC(=O)c1noc(C(C)(C)C)n1 (single isomer, unassigned)', 'BTK (Homo sapiens (Human), UniProt Q06187)', '≤ 1 nM'),
  ('Cc1cc(-c2ccnn3cccc23)ccc1CNC(=O)c1nc(C(C)(C)C)no1', 'BTK (Homo sapiens (Human), UniProt Q06187)', '1 to 10 nM'),
  ('Cc1cc(-c2ncnn3cc(N4CCN(C)C[C@H]4C)cc23)ccc1CNC(=O)c1noc(C(C)(C)C)n1 [Example 92]', 'BTK (Homo sapiens (Human), UniProt Q06187)', '1 to 10 nM');

Now for a further compound.
Entry "Cc1c(CNC(=O)c2nc(C(C)(C)C)no2)ccc(-c2ncnn3cc(N4CCOCC4)cc23)c1F" , tested on BTK (Homo sapiens (Human), UniProt Q06187), has a reported IC50 of ≤ 1 nM
